Listed next: entries and their corresponding LD50 in mice, i.p..
Test system: mice
Test: acute toxicity in mice (LD50, os and i.p.)
Conditions: mouse, in vivo, ip
Measured Quantity: LD50 in mice, i.p.

1. CCOC(=O)C1=C(CSCC2CCCN2)NC(C)=C(C(=O)OC)C1c1cccc([N+](=O)[O-])c1 (stereo not shown) [Compound 16a]: 7 mg/kg
2. CCOC(=O)C1=C(CSCC2CCCN2)NC(C)=C(C(=O)OC)C1c1cccc([N+](=O)[O-])c1 (stereo not shown) [Compound 16c]: 27 mg/kg
3. CCOC(=O)C1=C(CSCC2CCCN2)NC(C)=C(C(=O)OC)C1c1cccc([N+](=O)[O-])c1 (stereo not shown) [Compound 16b]: 25 mg/kg
4. CCOC(=O)C1=C(CSCC2CCCN2)NC(C)=C(C(=O)OC)C1c1cccc([N+](=O)[O-])c1 (stereo not shown) [Compound 16d]: 1000 mg/kg

---

Assay: in vivo
Conditions: mouse, po
Output class 1 for records whose LD50 is lower than 60 mg/kg, class 0 for records at or above 60 mg/kg.

1. CCOC(=O)C1=C(CSCCNC=O)NC(C)=C(C(=O)OC)C1c1cccc([N+](=O)[O-])c1 (centres unmarked): class 0
2. CCOC(=O)C1=C(CSCCN)NC(C)=C(C#N)C1c1cccc([N+](=O)[O-])c1 (centres unmarked): class 0
3. CCOC(=O)C1=C(CSCCN)NC(C)=C(C(=O)OC)C1c1ccccc1 (centres unmarked): class 1
4. CCOC(=O)C1=C(C)NC(CSCCN)=C(C(=O)OCC)C1c1ccccc1Cl (centres unmarked): class 1
5. CCOC(=O)C1=C(CSCCNCCC#N)NC(C)=C(C(=O)OC)C1c1cccc([N+](=O)[O-])c1 (centres unmarked): class 0

---

Listed next: entries and their corresponding log10 LD50.
Assay: in vivo
Details: mouse, po
Measured Quantity: log10 LD50 (log10 of the value in mg/kg)

1. CCOC(=O)C1=C(CSCCCCN)NC(C)=C(C(=O)OC)C1c1cccc([N+](=O)[O-])c1 (centres unmarked) [Compound 18]: 1.04
2. CCOC(=O)C1=C(CSCCN)NC(C)=C(C(=O)OC)C1c1ccccc1SC (centres unmarked) [Compound 8]: 0.90
3. CCCCNCCSCC1=C(C(=O)OCC)C(c2cccc([N+](=O)[O-])c2)C(C(=O)OC)=C(C)N1 (centres unmarked) [Compound 14]: 1.36
4. CCOC(=O)C1=C(CSCCN)NC(C)=C(C(=O)OC)C1c1cccc(C(F)(F)F)c1 (centres unmarked) [Compound 9]: 1.60
5. CCOC(=O)C1=C(CSCCN(C)C)NC(C)=C(C(=O)OC)C1c1cccc([N+](=O)[O-])c1 (centres unmarked) [Compound 12]: 1.58
6. CCOC(=O)C1=C(CSCCN)NC(C)=C(C(=O)OC)C1c1ccccc1C(F)(F)F (centres unmarked) [Compound 2]: 0.30
7. CCOC(=O)C1=C(CSCCN)NC(C)=C([N+](=O)[O-])C1c1cccc([N+](=O)[O-])c1 (centres unmarked) [Compound 21]: 2.65
8. CCOC(=O)C1=C(C)NC(CSCCN)=C(C(=O)OCC)C1c1ccccc1C(F)(F)F (centres unmarked) [Compound 3]: 0.95

---

Assay: in vivo
Conditions: mouse, po
Measured Quantity: log10(LD50) (log10 of the value in mg/kg)

1. CCOC(=O)C1=C(CSCCN)NC(C)=C(C(=O)OC)C1c1cccc([N+](=O)[O-])c1 (racemic) [Compound 11]: 1.72
2. CCOC(=O)C1=C(C)NC(CSCCN)=C(C(=O)OCC)C1c1cccc([N+](=O)[O-])c1 (stereo not shown) [Compound 10]: 1.32
3. CCOC(=O)C1=C(CSCCCN)NC(C)=C(C(=O)OC)C1c1cccc([N+](=O)[O-])c1 (stereo not shown) [Compound 17]: 1.34
4. CCOC(=O)C1=C(CSCC(N)c2ccccc2)NC(C)=C(C(=O)OC)C1c1cccc([N+](=O)[O-])c1 (stereo not shown) [Compound 29]: 1.89
5. CCOC(=O)C1=C(CSCCN)NC(C)=C(C(=O)OC)C1c1cccc(OC)c1 (stereo not shown) [Compound 26]: 1.91
6. CCOC(=O)C1=C(CSCC(C)N)NC(C)=C(C(=O)OC)C1c1cccc([N+](=O)[O-])c1 (stereo not shown) [Compound 30]: 1.62
7. CCOC(=O)C1=C(C)NC(CSCC(N)C(=O)OCC)=C(C(=O)OCC)C1c1cccc([N+](=O)[O-])c1 (stereo not shown) [Compound 32]: 2.88
